These data points were gathered from ChEMBL document CHEMBL3259536.

measured on: Amine oxidase [flavin-containing] B (Homo sapiens)
Sequence (P27338 whole entry): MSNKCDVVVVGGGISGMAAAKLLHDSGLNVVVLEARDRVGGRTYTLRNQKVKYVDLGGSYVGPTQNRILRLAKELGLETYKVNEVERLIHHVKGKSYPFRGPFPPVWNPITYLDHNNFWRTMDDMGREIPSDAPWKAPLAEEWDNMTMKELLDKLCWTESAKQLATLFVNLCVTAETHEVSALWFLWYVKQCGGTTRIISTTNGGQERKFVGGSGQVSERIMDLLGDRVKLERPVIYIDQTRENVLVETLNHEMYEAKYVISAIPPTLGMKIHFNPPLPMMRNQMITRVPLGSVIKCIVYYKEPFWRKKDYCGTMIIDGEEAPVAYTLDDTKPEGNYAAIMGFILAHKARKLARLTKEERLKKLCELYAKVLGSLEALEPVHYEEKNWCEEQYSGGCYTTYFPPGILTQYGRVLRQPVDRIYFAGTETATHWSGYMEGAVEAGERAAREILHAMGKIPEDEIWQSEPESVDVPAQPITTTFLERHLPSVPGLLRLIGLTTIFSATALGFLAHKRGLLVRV
assay explanation: Inhibition of human recombinant MAO-B expressed in baculovirus infected insect cell microsomes assessed as p-tyramine conversion to resorufin and H2O2 after 15 mins by fluorimetric assay
assay endpoint: pIC50
Give bare numbers, as −log10 of the molar value.

Cc1cccc(NC(=O)c2cc3cc(Br)cc(Br)c3oc2=O)c1 = 4.67
O=C(NCCCN1CCOCC1)c1cc2cc([N+](=O)[O-])ccc2oc1=O = 4.34
O=C(Nc1cccc(C(F)(F)F)c1)c1cc2cc([N+](=O)[O-])ccc2oc1=O = 4.64

Please turn your attention to the following entry.
Note to self: pIC50 recorded for Cc1cccc(NC(=O)c2cc3cc([N+](=O)[O-])ccc3oc2=O)c1 was 4.41
